Entries and their koff values follow.
tgt: T1, biotinylated native human ApoC3 (human, UniProt P02656 21-99, biotinylated (site not stated))
T1 construct: also called biotinylated human ApoC3
methodDescription: SPR, IgG1 over biotinylated ApoC3 on SA chip, pH 5.5
Protocol: Biotinylated native human ApoC3 was captured on a streptavidin coated SPR chip (GE Healthcare, cat. nr. BR100032) at pH 7.4, in accordance with the method provided by Biacore, by injection of 20 μl 10 μg/ml biotinylated native human ApoC3 reaching the surface density of approximately 500 RU. […] The resulting sensorgrams were analyzed using the BIAevaluation 4.1 software using Langmuir 1:1 binding model to derive binding kinetics. […]
Provide only the numeric value, understood in s⁻¹.

>  <binder>
mAb13 (antibody, IgG1, V domains shown, Produced as full length IgG1 (kappa) in ExpiCHO-S cells; CDR graft into the closest human germline frameworks; also called humanized anti-ApoC3 antibody mAb13; variant 13) VH: QLLESGGGLVQPGGSLRLSCAASGFTFSTYSMRWVRQVPGKGLEWVSSIHTEGGGTAYRDSVKGRFTISRDNSKNTLYLQMNSLRAEDTAVYYCVIAGYSDWGQGTLVTVSS VL: DIVMTQSPLSLPVTPGEPASISCKTSQGLVHSDGKTYFYWYLQKPGQSPQLLIYQVSNRASGVPDRFSGSGSGTDFTLKISRVEAEDVGVYYCAHGTYYPHTFGQGTRLEIK

>  <unitsSymbol>
s⁻¹

>  <reported>
0.00267

$$$$
>  <binder>
mAb14 (antibody, IgG1, V domains shown, Produced as full length IgG1 (kappa) in ExpiCHO-S cells; CDR graft into the closest human germline frameworks; also called humanized anti-ApoC3 antibody mAb14; variant 14) VH: QLLESGGGLVQPGGSLRLSCAASGFTFGTYSMRWVRQVPGKGLEWVSSIHTEGGGTAYRDSVKGRFTISRDNSKNTLYLQMNSLRAEDTAVYYCVIAGYSDWGQGTLVTVSS VL: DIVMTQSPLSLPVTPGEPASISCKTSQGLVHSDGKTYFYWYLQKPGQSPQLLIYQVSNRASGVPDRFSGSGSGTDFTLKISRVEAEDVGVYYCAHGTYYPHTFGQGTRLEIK

>  <unitsSymbol>
s⁻¹

>  <reported>
0.00788

$$$$

Okay, next one:
Asked: koff lookup needed for mAb4 (antibody, IgG1, V domains shown, Produced as full length IgG1 (kappa) in ExpiCHO-S cells; also called humanized anti-ApoC3 antibody mAb4) VH: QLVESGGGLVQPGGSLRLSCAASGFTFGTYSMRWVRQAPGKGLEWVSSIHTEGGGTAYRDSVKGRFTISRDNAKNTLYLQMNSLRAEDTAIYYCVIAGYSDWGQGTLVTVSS VL: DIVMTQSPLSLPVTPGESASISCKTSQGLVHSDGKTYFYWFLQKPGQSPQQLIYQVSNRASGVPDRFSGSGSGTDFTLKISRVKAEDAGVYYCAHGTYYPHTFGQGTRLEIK , thanks.
Given back: 0.000156
